assay.overview: yeast AGP1-GFP level changes, GLN3 branch – cell-based, multiplex flow cytometry, S. cerevisiae, primary screen (AID 1887);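 note: AGP1-GFP fusion strain of S. cerevisiae within a five-strain barcoded multiplex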
experimental.conditions: 3 h, at 10 µM, stronger effect = higher value
Records with an inconclusive call do not appear.

compound: CC1(C)CC(NCc2ccccc2)CCO1 (stereo not drawn)
GFP response, % of DMSO (%): 114
//
compound: C#CCOc1ccc2c(C)cc(=O)oc2c1
GFP response, % of DMSO (%): 98.9
//
compound: C[C@]12C[C@H](O)[C@H]3[C@@H](CCC4=CC(=O)CC[C@@]43C)[C@@H]1CC[C@@H]2C(=O)CO
GFP response, % of DMSO (%): 101

====

target.desc: Cell division control protein 42 homolog (Homo sapiens) (UniProt P60953)
Sequence (P60953 whole entry, looked up): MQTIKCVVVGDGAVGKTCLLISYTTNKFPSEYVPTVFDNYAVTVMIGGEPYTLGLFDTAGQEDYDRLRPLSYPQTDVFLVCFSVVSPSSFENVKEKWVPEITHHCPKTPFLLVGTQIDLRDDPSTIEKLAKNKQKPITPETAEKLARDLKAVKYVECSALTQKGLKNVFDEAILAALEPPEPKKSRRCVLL
assay.overview: inhibition of fluorescent GTP binding to wildtype Cdc42 – biochemical, multiplex bead flow cytometry, Bodipy-FL-GTP, dose response (AID 1334)
experimental.conditions: bead-based flow cytometry, Bodipy-FL-GTP binding to GST-Cdc42; at 100 µM (top of the series) unless noted
Entries with a potency or affinity are not part of this list.
attribute.measured: fluorescence, percent of control (lower = inhibition) (%)

molecule: S=c1[nH]nc(-c2ccc3ccccc3n2)n1-c1ccccc1Cl
unit.of.measurement: %
readout.value: 45.1
--
molecule: C=CCc1ccc(OCc2ccc(C(=O)O)o2)c(OC)c1
unit.of.measurement: %
readout.value: 58.9
--
molecule: CCc1ccccc1NC(=O)N1C2CCCC1CC(NC(C)=O)C2 (centres undefined)
unit.of.measurement: %
readout.value: 102
--
molecule: COc1ccc(CCNc2nc(=S)[nH]c3cc(OC)c(OC)cc23)cc1OC
unit.of.measurement: %
readout.value: 25.9
--
molecule: O=C(O)C1(NCc2ccc(F)cc2)CCCCC1
unit.of.measurement: %
readout.value: 62.4
--
molecule: COc1cc2c(cc1OC)-c1cc(NCc3ccccn3)nc(=O)n1CC2
unit.of.measurement: %
readout.value: 30.7
--
molecule: COCc1cc(C)nc(N/N=C/c2ccc(-c3ccc(C(=O)O)c(Cl)c3)o2)c1C#N
unit.of.measurement: %
readout.value: 30.6
--
molecule: Cc1ccc(/C(N)=N/OC(=O)CCC2CCCCC2)cc1
unit.of.measurement: %
readout.value: 80.5
--
molecule: Cc1csc(NC(=O)c2cc(=O)[nH]c3ccc(S(=O)(=O)N4CCOCC4)cc23)n1
unit.of.measurement: %
readout.value: 31.8
--
molecule: O=S(=O)(N/N=C\c1cccnc1)c1ccccc1
unit.of.measurement: %
readout.value: 53.2
--
molecule: CCOC(=O)c1c2c3c(c(Cl)ccc3[nH]c1=O)C(=O)c1ccccc1-2
unit.of.measurement: %
readout.value: 19.1
--
molecule: O=C(CN1C(=O)C2C3c4ccccc4C(c4ccccc43)C2C1=O)Nc1cccc(C(=O)O)c1 (centres undefined)
unit.of.measurement: %
readout.value: 46.1
--
molecule: O=C(Nc1cnn(C23CC4CC(CC(C4)C2)C3)c1)c1cnn2cccnc12
unit.of.measurement: %
readout.value: 41.2
--
molecule: Cc1cc2[nH]c3c(c[n+](C)c4ccccc34)c2cc1C
unit.of.measurement: %
readout.value: 35.5
--
molecule: COc1cc([N+](=O)[O-])cc(/C=N/NC(=O)c2ccc(NC(=O)c3ccc(C)cc3)cc2)c1O
unit.of.measurement: %
readout.value: 33
--
molecule: Oc1ccc(C2=Nn3c(nnc3-c3ccco3)SC2)cc1O
unit.of.measurement: %
readout.value: 25.1
--
molecule: CC1CCCN(c2ccc3nc4ccccc4c(=O)n3n2)C1 (centres undefined)
unit.of.measurement: %
readout.value: 33.3
--
molecule: Cn1nnc(NC(=S)NC(=O)c2ccc(-c3ccc(Br)cc3)o2)n1
unit.of.measurement: %
readout.value: 30.7
--
molecule: Cc1cccc(OCC(=O)N/N=C/c2ccc3c(c2)OCO3)c1
unit.of.measurement: %
readout.value: 34.8

====

# reported response; entries follow
target.desc: Beta-2 adrenergic receptor (Homo sapiens) (UniProt P07550)
Sequence (P07550 whole entry, looked up): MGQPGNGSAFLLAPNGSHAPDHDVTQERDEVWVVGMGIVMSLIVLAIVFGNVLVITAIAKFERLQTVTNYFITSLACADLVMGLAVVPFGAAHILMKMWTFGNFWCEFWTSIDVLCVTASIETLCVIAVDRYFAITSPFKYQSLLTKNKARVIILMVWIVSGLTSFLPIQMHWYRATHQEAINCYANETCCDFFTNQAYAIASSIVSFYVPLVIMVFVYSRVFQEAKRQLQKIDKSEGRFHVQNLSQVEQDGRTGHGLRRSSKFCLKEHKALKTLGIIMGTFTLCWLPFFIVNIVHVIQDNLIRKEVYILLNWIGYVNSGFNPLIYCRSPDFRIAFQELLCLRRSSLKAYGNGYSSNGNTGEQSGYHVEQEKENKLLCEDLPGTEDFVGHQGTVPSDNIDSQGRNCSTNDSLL
assay.overview: agonist-induced loss of surface beta2AR – cell-based, FAP fluorogen, flow cytometry, validation set, pilot screen (AID 504459);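 note: agonist-driven loss of surface beta2AR via internalization measured by FAP dye flow cytometry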
experimental.conditions: Am2.2-beta2AR cells, at 10 µM, stronger effect = higher value

compound: O=C(CN1C(=O)C2CCc3[nH]c4ccccc4c3C2C1=O)N1CCCC1 (stereo not given)
response / %: -15.3
--
compound: CC(=O)Nc1ccc(S(=O)(=O)c2ccc(N)cc2)cc1
response / %: -3.74
--
compound: Cc1cc(OC(=O)CNC(=O)OC(C)(C)C)c2c(C)cc(=O)oc2c1
response / %: -17.2
--
compound: O=C(COc1ccccc1)Nc1ccc2c(c1)C(=O)N(CC1CCCO1)C2=O (stereo not given)
response / %: 3.99
--
compound: Cc1ccc2c(c1)C(CCN)C(=O)N2Cc1ccccc1 (stereo not given)
response / %: -2.03
--
compound: OC(CCN1CCCC1)(c1ccccc1)C1CCCCC1 (stereo not given)
response / %: 6.72
--
compound: C/C(CCc1oc2ccc(Cl)cc2c1-c1ccc(C)o1)=N\O
response / %: -13
--
compound: O=C(COc1ccc2ccc(=O)oc2c1)c1ccccc1
response / %: -4.3
--
compound: CC(C)=CCC(C)(C)/C=N/NC(N)=O
response / %: -21.9
--
compound: CC(C)(C)OC(=O)N1CC(O)CC1C(=O)OCC(=O)c1ccc(Cl)cc1 (stereo not given)
response / %: -16.2
--
compound: CCO/C([O-])=N/c1c[n+](N2CCOCC2)no1
response / %: 9.37
--
compound: O=c1ccc2c(o1)/C(=C/C=C(Cl)Cl)CCC2
response / %: 62.6
--
compound: COc1ccc2c(c1OC)C(=O)N1C2SC[C@H]1C(=O)NC1CC(C)(C)NC(C)(C)C1 (stereo not given in full)
response / %: 3.43
--
compound: COc1ccc(C(Cl)=C(c2ccc(OC)cc2)c2ccc(OC)cc2)cc1
response / %: 1.32
--
compound: Cc1ncc(CN2CCC(CO)(CCc3ccccc3)CC2)s1
response / %: -0.43
--
compound: CCOCCCNCc1cn(-c2ccc(F)cc2F)nc1-c1ccccc1C
response / %: -8.93
--
compound: Cc1c(Cc2ccccc2)c(=O)oc2c(CN(C)C)c(O)c(Cl)cc12
response / %: -3.4
--
compound: CCOC(=O)C(NC(C)=O)C(O)c1ccc([N+](=O)[O-])cc1 (stereo not given)
response / %: 4.84
--
compound: CC12CN3CC(C)(CN(C1)C3c1ccc(Br)cc1O)C2 (stereo not given)
response / %: -11.7
--
compound: CC(C)c1ccc(/C=C/C(=O)O)cc1
response / %: 3.14

====

Collected percent of DMSO control GFP values appear next to each entry.
assay.overview: rapamycin-like changes in RPL19A-GFP expression – cell-based, S. cerevisiae, multiplex flow cytometry, primary screen (AID 1862);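 note: lower values mimic rapamycin by blocking the RPL19A rise seen in DMSO cells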
experimental.conditions: S. cerevisiae RPL19A-GFP strain, flow cytometry fluorescence, 3 h; at 10 µM; stronger effect = lower value
Results filed as inconclusive are left out.

molecule: CC/C(=C(\c1ccc(O)cc1)c1ccc(OCCN(C)C)cc1)c1ccccc1
unit.of.measurement: %
percent of DMSO control GFP: 107

molecule: O=C1c2ccccc2N2C(=O)c3ccccc3C2N1Cc1ccco1 (configuration not stated)
unit.of.measurement: %
percent of DMSO control GFP: 104

molecule: CC(=O)NC(NC(=S)N1CCCCCC1)C(Cl)(Cl)Cl (configuration not stated)
unit.of.measurement: %
percent of DMSO control GFP: 102

molecule: COC(=O)C1=C(C)NC(C)=C([N+](=O)[O-])C1c1ccccc1C(F)(F)F (configuration not stated)
unit.of.measurement: %
percent of DMSO control GFP: 101

molecule: Cc1nc(N)sc1C(=O)N/N=C/c1ccco1
unit.of.measurement: %
percent of DMSO control GFP: 105

molecule: C[N+](C)(C)CCOP(=O)([O-])OC[C@H](O)CO
unit.of.measurement: %
percent of DMSO control GFP: 103

molecule: CCOC(=O)c1oc2cc(O)cc(C)c2c(=O)c1-c1cscn1
unit.of.measurement: %
percent of DMSO control GFP: 100

molecule: COC(=O)CN1C(=S)N(c2ccc(F)cc2)C(=O)C1CC(=O)Nc1ccccc1 (configuration not stated)
unit.of.measurement: %
percent of DMSO control GFP: 99.7

molecule: CCO/C([O-])=N/c1c[n+](N2CCOCC2)no1
unit.of.measurement: %
percent of DMSO control GFP: 99.8

molecule: CC1=C(/C=C/C(C)=C/C=C/C(C)=C/C(=O)O)C(C)(C)CCC1
unit.of.measurement: %
percent of DMSO control GFP: 106

molecule: CCc1cc2c(=O)c(-c3nc(C)cs3)c(CCCC(=O)O)oc2cc1O
unit.of.measurement: %
percent of DMSO control GFP: 103

molecule: COc1ccc2cc([C@H](C)C(=O)O)ccc2c1
unit.of.measurement: %
percent of DMSO control GFP: 103
